Test system: Mycobacterium tuberculosis
Test: Antitubercular activity against Mycobacterium tuberculosis H37Rv ATCC 27294 after 28 days by agar dilution method
Assay type: functional
Conditions: H37Rv ATCC 27294, 672 h
ASSAY READOUT: MIC (µg/mL)
State just the number; it will be interpreted in µg/mL.

# STRUCTURE, UNIT TEXT, MIC
measured = [
    ("O=C(O)c1cn(C2CC2)c2cc(N3CCNCC3)c(F)cc2c1=O", "µg/mL", 3.13),
    ("CN1C[C@@H](c2ccccc2)[C@]2(C(=O)Oc3ccccc32)[C@@]12C(=O)Nc1ccccc12", "µg/mL", 12.5),
    ("CSc1ccc([C@@H]2[C@H]3CSCN3[C@]3(C(=O)Nc4ccccc43)[C@@]23C(=O)Oc2ccccc23)cc1", "µg/mL", 12.5),
    ("NNC(=O)c1ccncc1", "µg/mL", 0.05),
    ("Cc1ccc([C@@H]2[C@H]3CSCN3[C@]3(C(=O)Nc4ccc(Br)cc43)[C@@]23C(=O)Oc2ccccc23)cc1", "µg/mL", 12.5),
    ("O=C1Oc2ccccc2[C@@]12[C@H](c1ccc(Br)cc1)[C@H]1CSCN1[C@]21C(=O)Nc2ccc([N+](=O)[O-])cc21", "µg/mL", 12.5),
    ("O=C1Oc2ccccc2[C@@]12[C@H](c1ccc(Br)cc1)[C@H]1CSCN1[C@]21C(=O)Nc2ccc(Br)cc21", "µg/mL", 3.12),
]

Attention now turns to another entry.
GET /value?item= O=C1Oc2ccccc2[C@@]12[C@H](c1ccccc1)[C@H]1CSCN1[C@]21C(=O)Nc2ccc([N+](=O)[O-])cc21 &field=MIC returns 3.12

---

Experiment: Cytotoxicity against mouse RAW264.7 cells assessed as inhibition of cell viability at 50 uM after 72 hrs by MTT assay relative to control
Format: cell-based
Settings: read-out: INH
ASSAY READOUT: cytotoxicity at 72 h, 50 µM (%)
Return type: number; implicit unit %.

Example results:
# STRUCTURE, UNIT TEXT, cytotoxicity at 72 h, 50 µM
data = [
    ("O=C1Oc2ccccc2[C@@]12[C@H](c1ccccc1)[C@H]1CSCN1[C@]21C(=O)Nc2ccc([N+](=O)[O-])cc21", "%", 35.2),
    ("O=C1Oc2ccccc2[C@@]12[C@H](c1ccc([N+](=O)[O-])cc1)[C@H]1CSCN1[C@]21C(=O)Nc2ccccc21", "%", 20.7),
    ("O=C1Oc2ccccc2[C@@]12[C@H](c1ccc(Br)cc1)[C@H]1CSCN1[C@]21C(=O)Nc2ccc(Br)cc21", "%", 32.4),
]

For record CN1C[C@@H](c2ccc([N+](=O)[O-])cc2)[C@]2(C(=O)Oc3ccccc32)[C@@]12C(=O)Nc1ccccc12 the listed cytotoxicity at 72 h, 50 µM is 29.5

Item: O=C1Oc2ccccc2[C@@]12[C@H](c1ccc([N+](=O)[O-])cc1)[C@H]1CSCN1[C@]21C(=O)Nc2ccc(Br)cc21 | cytotoxicity at 72 h, 50 µM: 43.1

Form field cytotoxicity at 72 h, 50 µM, entry CSc1ccc([C@@H]2CN(C)[C@]3(C(=O)Nc4ccccc43)[C@@]23C(=O)Oc2ccccc23)cc1 : 28.7
